tested on: EKVX; experiment: NCI tumour cell line growth inhibition, 48 h
Activity calls are given as the source filed them. Rule as the data show it: active = GI50 up to about 1.1 µM and inactive = higher.
endpointName: GI50

# annotated cases, reported GI50 shown
[
  {
    "compound": "COc1ccc(-c2cc(-c3ccc(Nc4ccnc5cc(C(F)(F)F)ccc45)cc3)[nH]c(=O)c2C#N)c2ccccc12",
    "assayTarget": "EKVX",
    "GI50": "> 100 µM (inactive)"
  },
  {
    "compound": "Fc1ccccc1-c1cc(S)c2cc3c(cc2n1)OCO3",
    "assayTarget": "EKVX",
    "GI50": "10.5 µM (inactive)"
  },
  {
    "compound": "CCOC(=O)C1C(=O)c2ccccc2CN1Cc1ccccc1 (centres undefined)",
    "assayTarget": "EKVX",
    "GI50": "> 100 µM (inactive)"
  }
]

Under EKVX: GI50 value of CC1(C)COC(c2cccc(C(O)c3ccc(Cl)cc3)c2)=N1 (centres undefined) ?
35.4 µM (inactive)

---

Listed below: GI50 values for each entry.
system: A549; assay: NCI tumour cell line growth inhibition, 48 h
Activity calls are given as the source filed them. Cut-off read from the data, not from the text of the source: active = GI50 up to about 1.1 µM and inactive = higher.

In the examples that follow, each entry is paired with its recorded GI50.
[
  {
    "molecule": "Cn1/c(=N\\N=C(\\CNCCO)[C@@H](O)[C@@H]2OC(c3ccccc3)OC[C@H]2O)sc2ccccc21 (some centres undefined)",
    "endpointResult": "15.8 µM (inactive)"
  },
  {
    "molecule": "NN=C(CC(O)(C(F)(F)Cl)C(F)(F)Cl)CC(O)(C(F)(F)Cl)C(F)(F)Cl",
    "endpointResult": "> 10 µM (inactive)"
  },
  {
    "molecule": "c1cnc2c(c1)-n1cccc1C1(CCSC1)NN2 (centres undefined)",
    "endpointResult": "> 100 µM (inactive)"
  },
  {
    "molecule": "CC(C)(CCc1nc2ccccc2[nH]1)C(=O)O",
    "endpointResult": "> 100 µM (inactive)"
  }
]

Next molecule, GI50 to be filled in.
Could you tell me which GI50 is on file for CSc1nc(NC2OCC(O)C(O)C2O)c(N)c(=O)n1C (centres undefined) ?
> 100 µM (inactive)

---

tested on: PC-3; assay: NCI tumour cell line growth inhibition, 48 h
Calls of active or inactive are those of the source. Rule as the data show it: active = GI50 up to about 1.1 µM and inactive = higher.
endpointName: GI50

Given C[C@@H](NC(=O)[C@@H]1C[C@]1(C)COC(=O)c1cc([N+](=O)[O-])cc([N+](=O)[O-])c1)c1cccc2ccccc12 , state its recorded GI50.
> 100 µM (inactive)

---

test system: Malme-3M; experiment: NCI tumour cell line growth inhibition, 48 h
The source made the active and inactive calls. Cut-off read from the data, not from the text of the source: active = GI50 up to about 1.1 µM and inactive = higher.
Select the correct class. Options are active, inactive and nothing else.

[
  {
    "compound": "COc1ccc(/C(=N/N=c2\\[nH]c3ccccc3n2Cc2ccccc2)C(=O)O)cc1",
    "className": "inactive"
  },
  {
    "compound": "COc1c(Cl)c2c(c(OC)c1OC)-c1ccc(OC)c(=O)c(Cl)c1C(NC(C)=O)CC2 (configuration not stated)",
    "className": "active"
  },
  {
    "compound": "O=C(Nc1ccccc1)OCCN=c1c2ccccc2ccc2ccccc12",
    "className": "inactive"
  },
  {
    "compound": "CC(C)c1ccc(/C=C2\\CSCC3=C2N=C(S)NC3c2ccc(C(C)C)cc2)cc1 (configuration not stated)",
    "className": "inactive"
  },
  {
    "compound": "CN(C)C(=S)/N=c1\\ssc(=S)n1Cc1cccs1",
    "className": "inactive"
  },
  {
    "compound": "Cc1ccc(S(=O)(=O)NC(=O)NC(CC(N)=O)C(=O)O)cc1 (configuration not stated)",
    "className": "inactive"
  }
]

Write down the call the test reported for this compound. Item: O=P(Nc1ccc(Cl)cc1)(Oc1ccccc1)N(CCCl)CCCl (configuration not stated)
inactive

---

system: SW-620; assay: NCI tumour cell line growth inhibition, 48 h
Calls of active or inactive are those of the source. No stated cut-off is given here; in the data, active = GI50 up to about 1.1 µM and inactive = higher.
Recorded GI50, one value per entry.

Consider the reported GI50 for these compounds:
[
  {
    "compound": "CN(Cc1ccccc1)C(=S)S [SODIUM BENZYL(METHYL)CARBAMODITHIOATE]",
    "GI50": "51.3 µM (inactive)"
  },
  {
    "compound": "CC(C)=CC1C(COC(=O)c2ccccc2Cl)C1(C)C (centres undefined)",
    "GI50": "51.3 µM (inactive)"
  },
  {
    "compound": "CCCCCCCCSC(=O)NCCCC",
    "GI50": "75.3 µM (inactive)"
  }
]

Please find the next compound below.
Form field - read-out: GI50; system: SW-620; submitted item: C[C@]12CCC(=O)C=C1CC[C@@H]1[C@@H]2CC[C@]2(C)C(=O)[C@H](n3ccnc3)C[C@@H]12
> 100 µM (inactive)

---

test system: ACHN; assay: NCI tumour cell line growth inhibition, 48 h
Calls of active or inactive are those of the source. Rule as the data show it: active = GI50 up to about 1.1 µM and inactive = higher.
endpointName: GI50

[
  {
    "compound": "Cc1cccc(C)c1N1C(=O)C(=O)C(c2nc3ccccc3s2)/C(=N/c2cccc3c(=O)[nH][nH]c(=O)c23)C1=O (stereo unspecified)",
    "assayTarget": "ACHN",
    "endpointName": "GI50",
    "endpointResult": "> 100 µM (inactive)"
  },
  {
    "compound": "CN(C)CN(C)c1nc(N(C)C)nc(N(C)CN(C)C)n1",
    "assayTarget": "ACHN",
    "endpointName": "GI50",
    "endpointResult": "45.4 µM (inactive)"
  },
  {
    "compound": "CC(=O)OC1=C2CC[C@@H]3C(CC[C@@]4(C)C3CC[C@@H]4OC(C)=O)[C@@]2(C)CC(C#N)C1=O (stereo partly specified)",
    "assayTarget": "ACHN",
    "endpointName": "GI50",
    "endpointResult": "20.8 µM (inactive)"
  }
]

Name the reported GI50 value associated with the compound O=C1OC(c2ccccc2)=N/C1=C/C=C/c1ccco1
> 100 µM (inactive)

Report GI50 for CN(C)C1(N(C)C)Oc2c(c(=O)n(C)c(=O)n2C)C(c2ccccc2Br)C1(F)F (stereo unspecified) please.
> 100 µM (inactive)

Need GI50, item O=C1/C(=C/c2cccc([N+](=O)[O-])c2)N=C(c2ccccc2)N1c1ccc2c(c1)Sc1cc(N3C(=O)/C(=C/c4cccc([N+](=O)[O-])c4)N=C3c3ccccc3)ccc1N2
30.9 µM (inactive)

---

tested on: HCT-116; experiment: NCI tumour cell line growth inhibition, 48 h
Calls of active or inactive are those of the source. Rule as the data show it: active = GI50 up to about 1.1 µM and inactive = higher.
endpointName: GI50

Below, 3 compounds whose answers are already recorded.
[
  {
    "smilesEntry": "O=c1c(Cl)cc2nc3ccccc3sc-2c1Cl",
    "assayTarget": "HCT-116",
    "endpointResult": "16.2 µM (inactive)"
  },
  {
    "smilesEntry": "Nc1ccc2c(c1)C(=O)c1c(F)cccc1-2",
    "assayTarget": "HCT-116",
    "endpointResult": "30.5 µM (inactive)"
  },
  {
    "smilesEntry": "Nc1ccccc1OCCCOc1ccccc1N",
    "assayTarget": "HCT-116",
    "endpointResult": "> 100 µM (inactive)"
  }
]

Record lookup: for HCT-116, what GI50 belongs to O=C(C(Cl)=C(N1CCOCC1)N1CCOCC1)C(Cl)Cl ?
> 100 µM (inactive)

---

system: MCF7; assay: NCI tumour cell line growth inhibition, 48 h
Calls of active or inactive are those of the source. Cut-off read from the data, not from the text of the source: active = GI50 up to about 1.1 µM and inactive = higher.
Each record here notes measured GI50.

See these solved cases before continuing.
[
  {
    "compound": "C[C@@H]1CC[C@@H]2[C@@H](C1)O[C@@H]([C@H](C)OCc1ccccc1)SC2(C)C",
    "GI50": "16.9 µM (inactive)"
  },
  {
    "compound": "CN(C)CCNC(=O)c1ccc(NCCCN(C)CCCNc2ccc3c(=O)n(CCN(C)C)c(=O)n4c5ccccc5c(=O)c2c34)c2c(O)c3ccccc3nc12",
    "GI50": "< 0.01 µM (active)"
  },
  {
    "compound": "O=C1C[C@H]2[C@H](c3ccc(Br)cc3)[C@H]3C(=O)c4ccccc4NC(=O)[C@@H]3[C@@]2(O)c2ccccc2N1",
    "GI50": "11.1 µM (inactive)"
  },
  {
    "compound": "CC(=O)N1N=C(c2ccc3ccccc3c2O)CC1c1ccc(N(C)C)cc1 (configuration not stated)",
    "GI50": "> 100 µM (inactive)"
  },
  {
    "compound": "NC(Cc1c[nH]c2ccc([N+](=O)[O-])cc12)C(=O)O (configuration not stated)",
    "GI50": "> 100 µM (inactive)"
  }
]

I have this compound here, COc1ccc(C2(O)c3ccccc3C(=O)N(C)C2(O)c2ccc(OC)cc2)cc1 (configuration not stated) , and I need its recorded GI50.
54.5 µM (inactive)

# input compound: O=C1NC(NNc2ccccc2)=N/C1=C\c1ccco1 ; wanted: its GI50
15.5 µM (inactive)
